systemUnderTest: T1, biotinylated recombinant mouse IL-12Rβ2 (produced in-house) (mouse, UniProt P97378 24-637, random biotinylated)
T1 construct: also called mIL-12RB2; mIL12RB2
T1 sequence: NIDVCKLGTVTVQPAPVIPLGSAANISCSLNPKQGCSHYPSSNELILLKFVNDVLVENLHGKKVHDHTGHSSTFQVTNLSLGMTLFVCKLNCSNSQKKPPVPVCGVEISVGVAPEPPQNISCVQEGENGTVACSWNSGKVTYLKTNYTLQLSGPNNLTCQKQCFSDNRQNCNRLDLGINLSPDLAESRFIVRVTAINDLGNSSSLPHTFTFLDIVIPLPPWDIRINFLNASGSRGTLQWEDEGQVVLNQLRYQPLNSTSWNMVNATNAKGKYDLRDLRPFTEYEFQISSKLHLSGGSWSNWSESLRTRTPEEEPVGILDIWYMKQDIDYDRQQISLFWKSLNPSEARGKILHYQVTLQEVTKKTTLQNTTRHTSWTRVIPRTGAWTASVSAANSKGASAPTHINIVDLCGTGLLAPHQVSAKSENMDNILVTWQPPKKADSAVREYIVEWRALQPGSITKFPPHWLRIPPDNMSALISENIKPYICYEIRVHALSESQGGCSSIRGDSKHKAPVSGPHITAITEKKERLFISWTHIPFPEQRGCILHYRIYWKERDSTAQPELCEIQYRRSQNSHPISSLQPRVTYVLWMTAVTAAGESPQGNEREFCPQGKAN
assayOverview: BLI (Octet), P.E. VHH on immobilised biotinylated mIL-12RB2, 1:1 model
resultType: koff (s⁻¹)
Return type: number; implicit unit s⁻¹.

>>> testresult("anti-IL-12Rβ2 VHH clone 3CRHM99 (VHH, not shown: small tags and cut ends, tested as periplasmic extract; also called 21062) VHH: QVQLQESGGGLVQPGGSLRLSCAASGISSSRLHVGWFRQSPGKEREFVAAISLSGGTQAYTDSVKGRFTISGDNVKNTAYLQMNSLRPEDTAVYYCAARERFIWTWSDLTYDYWGQGTQVTVSS")
0.00671

*Q* Quick check: koff of anti-IL-12Rβ2 VHH clone 3CRHM73 (VHH, not shown: small tags and cut ends, tested as periplasmic extract; also called 21060) VHH: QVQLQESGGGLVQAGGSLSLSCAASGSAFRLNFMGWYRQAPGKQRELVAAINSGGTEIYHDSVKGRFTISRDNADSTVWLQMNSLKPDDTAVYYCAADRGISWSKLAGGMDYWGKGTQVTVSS ?
*A* 0.00605

*Q* Ok, now anti-IL-12Rβ2 VHH clone 3CAHM11 (VHH, not shown: small tags and cut ends, tested as periplasmic extract) VHH: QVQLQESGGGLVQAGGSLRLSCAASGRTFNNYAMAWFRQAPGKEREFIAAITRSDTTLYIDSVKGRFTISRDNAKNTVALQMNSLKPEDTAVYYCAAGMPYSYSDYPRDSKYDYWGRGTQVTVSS
*A* 0.00462

*Q* Note, next up: anti-IL-12Rβ2 VHH clone 3CRHM14 (VHH, not shown: small tags and cut ends, tested as periplasmic extract) VHH: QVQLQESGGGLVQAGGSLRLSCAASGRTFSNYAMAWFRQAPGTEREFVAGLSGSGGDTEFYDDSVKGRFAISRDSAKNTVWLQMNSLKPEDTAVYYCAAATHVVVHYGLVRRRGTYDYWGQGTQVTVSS
*A* 0.00483
